Consider the following molecules and their measured melting point readings.

Some solved cases for reference:
molecule: CC(=O)c1cccc(Nc2ccc3ccccc3n2)c1
melting point: 181 to 183 °C
//
molecule: CC(C)c1nc(COC(N)=O)n(Cc2ccc[nH]c2=O)c1Sc1cc(Cl)cc(Cl)c1
melting point: 214 °C
//
molecule: CN(C)C1CC2c3ccccc3Cc3ccccc3N2C1 (stereo not given)
melting point: 124 to 128 °C
//
molecule: COC(=O)C=Cc1ccc(C(=O)Nc2ccncc2)cc1
melting point: 209 to 211 °C

Query molecule follows.
Q) Dear colleague, I am looking for the recorded melting point of the following molecule: Fc1cc2c(c(-c3c(Cl)cccc3Cl)c1)OC(CNC1CC1)C2 (stereo not given)
A) 112 to 113 °C
